- Tested on: CP286
- Protocol text: qHTS profiling for inhibitors of Plasmodium falciparum proliferation (AID 504749); further: nearly all actives have a fitted effect of over 60% in size
- Test context: P. falciparum in erythrocytes, SYBR Green DNA, 72 h; series mostly up to 28.7 µM
Records with an inconclusive call do not appear. The source made the active and inactive calls. The call rests on the fitted dose curve; in most records, active means well fitted inhibition curve with a large enough effect; inconclusive means small, poorly fitted or top-dose-only effect; inactive means flat fitted curve, though single readings scatter.
Classes used: 1 (yes) for active, 0 (no) for inactive

> print(dat)
                                    molecule  group.label
 1     CC(=O)OCC(=O)NCCCOc1cccc(CN2CCCCC2)c1       0 (no)
 2    NC(=O)C(=O)N/N=C/c1ccc([N+](=O)[O-])o1       0 (no)
 3               Oc1ccc(Cl)cc1Sc1cc(Cl)ccc1O       0 (no)
 4           C[N+]1(CCCCC[N+]2(C)CCCC2)CCCC1       0 (no)
 5                N[C@@H](Cc1cnc[nH]1)C(=O)O       0 (no)
 6           CN=C(NC#N)NCCSCc1csc(N=C(N)N)n1       0 (no)
 7  COc1cc2c(cc1OC)C(=O)C(CC1CCN(Cc3ccccc3)CC1)C2 (stereo unspecified)       0 (no)
 8        Clc1ccc2c(c1)CCc1cccnc1C2=C1CCNCC1      1 (yes)
 9  CCCCC1=NC2(CCCC2)C(=O)N1Cc1ccc(-c2ccccc2-c2nn[nH]n2)cc1       0 (no)
10  CC(=O)OCC(=O)[C@@]1(OC(C)=O)[C@@H](C)C[C@H]2[C@@H]3C[C@H](F)C4=CC(=O)C=C[C@]4(C)[C@@]3(F)[C@@H](O)C[C@@]21C       0 (no)
11      Cc1ncc(CSSCc2cnc(C)c(O)c2CO)c(CO)c1O       0 (no)

* * *

- System: CP256
- Protocol text: qHTS profiling for inhibitors of Plasmodium falciparum proliferation (AID 504749); further: nearly all actives have a fitted effect of over 60% in size; further: potency means the concentration at half of the fitted maximal effect
- Test context: P. falciparum in erythrocytes, SYBR Green DNA, 72 h; series mostly up to 28.7 µM
Results filed as inconclusive are left out. The source made the active and inactive calls. Calls come from the whole dose curve; as a rule, active = well fitted inhibition curve with a large enough effect; inconclusive = small, poorly fitted or top-dose-only effect; inactive = flat fitted curve, though single readings scatter.
Metric name: Potency

> print(dat)
                                    compound  metric.name             result
 1      Cc1ncc(CSSCc2cnc(C)c(O)c2CO)c(CO)c1O      Potency           inactive
 2                       C=CCc1ccc(O)c(OC)c1      Potency           inactive
 3       Oc1c(Cl)cc(Cl)cc1Sc1cc(Cl)cc(Cl)c1O      Potency           inactive
 4          CN1CCC(=C2c3ccccc3Sc3ccccc32)CC1      Potency   11.2 µM (active)
 5    CCN1CCC[C@H]1CNC(=O)c1c(OC)ccc(Br)c1OC      Potency           inactive
 6      COc1ccc(/C=C/C(=O)c2ccc(OC)cc2OC)cc1      Potency   2.24 µM (active)
 7     CC(=O)OCC(=O)NCCCOc1cccc(CN2CCCCC2)c1      Potency           inactive
 8  COc1cc2c(cc1OC)C(C(C(=O)N(CCc1ccc(OC)c(OC)c1OC)CCc1ccc(OC)c(OC)c1OC)c1ccccc1)=NCC2 (stereo not given)      Potency   5.62 µM (active)
 9  CCN(CC)CCOC(=O)C(c1ccccc1)C1CCCCC1 (stereo not given)      Potency           inactive
10  CCOc1ccc(NC(=O)CC(C)O)cc1 (stereo not given)      Potency           inactive
11  CN1C(CCl)Nc2cc(Cl)c(S(N)(=O)=O)cc2S1(=O)=O (stereo not given)      Potency           inactive
12            CCCn1c(=O)[nH]c(=O)c2[nH]cnc21      Potency           inactive
13                              NC(CO)(CO)CO      Potency           inactive
14  COC1=CC(=O)C[C@@H](C)[C@]12Oc1c(Cl)c(OC)cc(OC)c1C2=O      Potency           inactive
15                N[C@@H](Cc1cnc[nH]1)C(=O)O      Potency           inactive
16     CCn1cc(C(=O)O)c(=O)c2cnc(N3CCCC3)nc21      Potency           inactive
17          CC(C)N=C(N)/N=C(\N)Nc1ccc(Cl)cc1      Potency  0.708 µM (active)
18  Cc1cc(N)c2cc(NC(=O)Nc3ccc4nc(C)cc(N)c4c3)ccc2n1      Potency   1.78 µM (active)
19      C[C@@H](CN(C)C)CN1c2ccccc2Sc2ccccc21      Potency           inactive
20           COc1ccc(C2C(=O)c3ccccc3C2=O)cc1      Potency           inactive
21  C[C@@H]1C[C@H]2[C@@H]3CCC4=CC(=O)C=C[C@]4(C)[C@@]3(F)[C@@H](O)C[C@]2(C)[C@H]1C(=O)CO      Potency           inactive
22  CC1=C(C(=O)OC(C)C)C(c2cccc([N+](=O)[O-])c2)C(C(=O)OC2CN(C(c3ccccc3)c3ccccc3)C2)=C(N)N1 (stereo not given)      Potency   4.47 µM (active)
23                       CCOC(=O)c1cccc(N)c1      Potency           inactive
24                        CCCCCCc1ccc(O)cc1O      Potency           inactive
25              CC(C)(C(=O)c1cccnc1)c1cccnc1      Potency           inactive
26  CCN(CC)C(=O)/C(C#N)=C/c1cc(O)c(O)c([N+](=O)[O-])c1      Potency           inactive
27        C[C@@H]1C(=O)NC2=Nc3cccc(Cl)c3CN21      Potency           inactive
28  Cc1c(N(C)CS(=O)(=O)O)c(=O)n(-c2ccccc2)n1C      Potency           inactive
29  CCCCCCCCCCCCCCCCOP(=O)([O-])OCC[N+](C)(C)C      Potency           inactive
30  CCCCC(CC)CN=C(N)NC(N)=NCCCCCCN=C(N)NC(N)=NCC(CC)CCCC (stereo not given)      Potency   3.55 µM (active)
31                          O=C(O)CCCCC(=O)O      Potency           inactive
32                     O=C(O)CNC(=O)c1ccccc1      Potency           inactive
33             CCN(CC)CCNC(=O)COc1ccc(Cl)cc1      Potency           inactive
34  C[C@]12CC[C@@H]3c4ccc(O)cc4CC[C@H]3[C@@H]1CC[C@@H]2O      Potency           inactive
35                               CCN1CCCC1=O      Potency           inactive

* * *

- Protocol text: Cell Viability - LYMP2-001 (AID 921);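 further: cells exposed to compound for 24 h at 37 °C; nearly all actives have a fitted effect of over 70% in size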; further: potency means the concentration at half of the fitted maximal effect
- Test context: LYMP2-001 lymphoblastoid cell viability; series mostly up to 92.2 µM
- Source text: NIH Chemical Genomics Center [NCGC] NIH Molecular Libraries Screening Centers Network [MLSCN] National Institutes of Environmental Health Sciences [NIEHS] National Toxicology Program [NTP] We have developed a 1536-well cell-based assay for quantitative high throughput screening (qHTS) against a number of cell lines to determine in vitro cytotoxicity of small molecules. […] 8. Detection; Luminescence; Viewlux plate reader […]
Records with an inconclusive call do not appear. Calls of active or inactive are those of the source. Calls follow the shape of the dose curve; as a rule, active = well fitted cell-killing curve with a large enough effect; inconclusive = small, poorly fitted or top-dose-only effect; inactive = no such curve, though single readings can be large or run the other way.
Metric name: Potency

> print(dat)
                                   compound  metric.name             result
1  COc1cccc2c1C(=O)c1c(O)c3c(c(O)c1C2=O)C[C@@](O)(C(=O)CO)C[C@@H]3O[C@H]1C[C@H](N)[C@H](O)[C@H](C)O1      Potency  0.501 µM (active)
2  COC1=CC(=O)C[C@@H](C)[C@]12Oc1c(Cl)c(OC)cc(OC)c1C2=O      Potency           inactive
3                              Oc1ccc(O)cc1      Potency   25.1 µM (active)
4                          O=C(O)CCCCC(=O)O      Potency           inactive
5    CC(O)C(=O)O (configuration not stated)      Potency           inactive
6                         Nc1ccc(C(=O)O)cc1      Potency           inactive
7                CN(C)/N=N/c1nc[nH]c1C(N)=O      Potency           inactive
